System: Moraxella catarrhalis
assay_info: Ratio of MBC to MIC against erythromycin-susceptible Moraxella catarrhalis 13L332
Format: functional
measured_property: Ratio
Please respond with just the number, no unit label.

Query string: Form field: reported Ratio of CC[C@H]1OC(=O)[C@@](C)(F)[C@H](OC(=O)Cc2ccccn2)[C@H](C)[C@@H](O[C@@H]2O[C@H](C)C[C@H](N(C)C)[C@H]2O)[C@](C)(OC)C[C@@H](C)/C(=N\OC)[C@H](C)[C@H]2OC(=O)O[C@@]21C
Result string: 2

More entries:
Query string: Form field: reported Ratio of CC[C@H]1OC(=O)[C@H](C)C(=O)[C@H](C)[C@@H](O[C@@H]2O[C@H](C)C[C@H](N(C)C)[C@H]2O)[C@](C)(OC)C[C@@H](C)C(=O)[C@H](C)[C@H]2N(CCCCn3cnc(-c4cccnc4)c3)C(=O)O[C@]12C
Result string: 4

###

Test system: Haemophilus influenzae
assay_info: Bacteriostatic activity against azithromycin-susceptible/ampicillin-resistant Haemophilus influenzae 11P307 after 20 to 24 hrs by two-fold microbroth dilution method
Format: functional
The entries below come with measured MIC values attached.

Example cases with answers are listed next.
Query string: What reported MIC corresponds to CC[C@H]1OC(=O)[C@H](C)C(=O)[C@H](C)[C@@H](O[C@@H]2O[C@H](C)C[C@H](N(C)C)[C@H]2O)[C@](C)(OC)C[C@@H](C)/C(=N\OCC#Cc2cncc3ccccc23)[C@H](C)[C@H]2OC(=O)O[C@@]21C on Haemophilus influenzae?
Result string: 16 µg/mL

Query string: Moving on to CC[C@H]1OC(=O)[C@@](C)(F)C(=O)[C@H](C)[C@@H](O[C@@H]2O[C@H](C)C[C@H](N(C)C)[C@H]2O)[C@](C)(OC)C[C@@H](C)/C(=N\OC/C=C/c2cnc3ccccc3c2)[C@H](C)[C@H]2OC(=O)O[C@@]21C
Result string: 8 µg/mL

Query string: Moving on to CC[C@H]1OC(=O)[C@H](C)[C@@H](O[C@H]2C[C@@](C)(OC)[C@@H](O)[C@H](C)O2)[C@H](C)[C@@H](O[C@@H]2O[C@H](C)C[C@H](N(C)C)[C@H]2O)[C@](C)(OC)C[C@@H](C)C(=O)[C@H](C)[C@@H](O)[C@]1(C)O
Result string: 1 to 8 µg/mL

Query string: Moving on to CC[C@H]1OC(=O)[C@@](C)(F)C(=O)[C@H](C)[C@@H](O[C@@H]2O[C@H](C)C[C@H](N(C)C)[C@H]2O)[C@](C)(OC)C[C@@H](C)/C(=N\OCC#Cc2cncc3ccccc23)[C@H](C)[C@H]2OC(=O)O[C@@]21C
Result string: 8 µg/mL

Query string: Moving on to CC[C@H]1OC(=O)[C@@](C)(F)C(=O)[C@H](C)[C@@H](O[C@@H]2O[C@H](C)C[C@H](N(C)C)[C@H]2O)[C@](C)(OC)C[C@@H](C)/C(=N\OC/C=C/c2cncc(C(N)=O)c2)[C@H](C)[C@H]2OC(=O)O[C@@]21C
Result string: 16 µg/mL

Query string: Moving on to CC[C@H]1OC(=O)[C@@](C)(F)C(=O)[C@H](C)[C@@H](O[C@@H]2O[C@H](C)C[C@H](N(C)C)[C@H]2O)[C@](C)(OC)C[C@@H](C)/C(=N\OC/C=C/c2cncc(N)c2)[C@H](C)[C@H]2OC(=O)O[C@@]21C
Result string: 16 µg/mL

Query string: Moving on to CC[C@H]1OC(=O)[C@H](C)C(=O)[C@H](C)[C@@H](O[C@@H]2O[C@H](C)C[C@H](N(C)C)[C@H]2O)[C@](C)(OC)C[C@@H](C)/C(=N\OC/C=C/c2cnc3ccccc3c2)[C@H](C)[C@H]2OC(=O)O[C@@]21C
Result string: 8 to 32 µg/mL

More entries:
Query string: What reported MIC corresponds to C=CCN(C)[C@H]1C[C@@H](C)O[C@@H](O[C@@H]2[C@@H](C)C(=O)[C@@H](C)C(=O)O[C@H](CC)[C@@]3(C)OC(=O)O[C@@H]3[C@@H](C)/C(=N/OC/C=C/c3cnc4ccccc4c3)[C@H](C)C[C@@]2(C)OC)[C@@H]1O on Haemophilus influenzae?
Result string: 32 µg/mL
